Target: Focal adhesion kinase 1 (Homo sapiens)
Test: PTK2 protein binding on printed compound slides – biochemical, small-molecule microarray, 635/667 nm fluorescence, BSA, DTT, primary screen (AID 1130);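 further: composite of spot emission at 667 nm and signal to noise over triplicate slides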
Details: 635 nm fluorescence, higher = more signal
composite z-score listing for selected compounds.
Respond using a number only.

COMPOUND	composite z-score
COCCCNC(=O)[C@@]1(C)c2ccccc2C(=O)N(c2ccc(C)cn2)[C@H]1c1ccc(CO)cc1	-0.193
Cc1cc(C)c(C(O)C2C=CC3C(=O)N(c4ccccc4)C(=O)C3N2Nc2ccccc2)c(C)c1 (stereo not drawn)	0.638
O=C(Nc1cc(Br)ccc1C(=O)NCc1cccc(O)c1)c1ccccc1	0.243
CC(C)CN1C(=O)[C@@]2(Cc3ccccc31)c1ccccc1C(=O)N(Cc1ccccc1)[C@H]2c1ccc(CO)cc1	-0.457
COC(=O)[C@@]1(Cc2ccc(OC)cc2)[C@H]2c3cc(C(=O)N4CCCC4)n(CCc4ccc(O)c(OC)c4)c3C[C@H]2CN1C(=O)c1ccccc1	0.717

Summary: CO[C@H]1O[C@H](CO)[C@@H](OC(=O)Nc2ccc(C(F)(F)F)cc2)[C@H](OC(=O)Nc2ccccc2)[C@H]1OC(=O)Nc1ccccc1 , Focal adhesion kinase 1 (Homo sapiens), composite z-score = 1.15

Note to self: composite z-score of C=CCOC(=O)[C@@H]1[C@H]2C(=O)O[C@H](c3ccccc3)[C@H](c3ccccc3)N2[C@H](c2ccc(OCCOC(=O)[C@H]3C[C@H]4C(=O)N[C@@H](Cc5ccccc5)C(=O)N4[C@H]3c3cccc(OCCO)c3)cc2)[C@@]12C(=O)Nc1ccc(I)cc12 with Focal adhesion kinase 1 (Homo sapiens) was 0.819

The reported Focal adhesion kinase 1 (Homo sapiens) composite z-score of O=C1O[C@@H](c2ccccc2)[C@@H](c2ccccc2)N2[C@@H](c3ccc(O)cc3)[C@]3(C(=O)Nc4ccc(C#CC5=CCCCC5)cc43)[C@@H](C(=O)Nc3nc4ccccc4s3)[C@H]12 is 0.32

Short answer on Focal adhesion kinase 1 (Homo sapiens) for COC(=O)[C@@]1(Cc2ccc(OC)cc2)[C@H]2c3cc(C(=O)N4CCCC4)n(Cc4ccc(C)o4)c3C[C@H]2CN1C(=O)c1ccccc1 , composite z-score: -0.0727

Tested on Focal adhesion kinase 1 (Homo sapiens), the item O=C(C=C(CC(O)c1cccc(Cl)c1)OCCF)OCCF (stereo not drawn) showed composite z-score equal to -0.401

The compound O=C1OCC=C[C@H]2OC34C=CCN(CCN5CCOCC5)C(=O)[C@H]3N(CCCCCO)C(=O)[C@@H]4[C@@H]12 (stereo partly drawn) , when measured on Focal adhesion kinase 1 (Homo sapiens), yielded composite z-score of 0.311
